# Tested on: HIF-1
# test.description: HIF-1 GFP/DsRFP expression (G/R) in C6#4 cells stimulated by CoCl2
# Type: cell-based
# measurement.conditions: C6#4 cells, experiment 3; read-out: G/R (EC-50) 3 ex
measured.parameter: pEC50
Interpret pEC50 as the negative base-10 log of the concentration measured in mol/L.

For CC(C)c1ccc(Nc2nccn3c(-c4cccc(O)c4)cnc23)cc1 , write its pEC50.
2.25

====

# Tested on: HIF-1
# test.description: HIF-1 GFP/DsRFP expression (G/R) in C6#4 cells stimulated by CoCl2
# Format: cell-based
# measurement.conditions: read-out: G/R (EC-50) 2 ex
measured.parameter: pEC50
Lab note: report pEC50 as minus log10 of the concentration in molar units, number only.

Please supply the value of reported pEC50 for the item CC(=O)c1cccc(-c2cnc3c(Nc4ccc(N5CCOCC5)cc4)nccn23)c1
4.91

Could you please provide reported pEC50 for c1ccc(Oc2ccc(Nc3nccn4c(-c5ccc6[nH]ccc6c5)cnc34)cc2)cc1 ? Thanks!
5.03

Name the recorded pEC50 of the molecule listed here: COc1cc(Nc2nccn3c(-c4cccc(C(C)=O)c4)cnc23)cc(OC)c1OC
4.79

Complete the entry with pEC50 for COc1ccc(Nc2nccn3c(-c4cccc(C(N)=O)c4)cnc23)cc1
5.16

Answer with the recorded pEC50 of COc1cc(-c2cnc3c(Nc4ccccc4)nccn23)ccc1O only.
4.61

Supply recorded pEC50 for c1ccc2c(-c3cnc4c(Nc5ccc6[nH]ccc6c5)nccn34)cccc2c1 here.
4.37

# return recorded pEC50 for input COc1cccc(-c2cnc3c(Nc4ccccc4)nccn23)c1
4.64

Determine its reported pEC50: CN(C)CCNC(=O)c1ccc(-c2cnc3c(Nc4ccc(Oc5ccccc5)cc4)nccn23)cc1
4.80

====

# Test system: C6#4 cells
# measurement.conditions: read-out: WST-1 (EC-50) 3 ex
measured.parameter: EC50 (µM)
Your answer is read as µM, so omit the unit and give the number.

Name the recorded EC50 of the item COc1cc(-c2cnc3c(Nc4ccccc4)nccn23)ccc1O [LG2-62] in your answer.
27.1

Note down EC50 recorded for c1ccc(Oc2ccc(Nc3nccn4c(-c5ccc6[nH]ccc6c5)cnc34)cc2)cc1 [LG2-7]
42.7

Please supply the value of reported EC50 for the item c1ccc2c(-c3cnc4c(Nc5ccc6[nH]ccc6c5)nccn34)cccc2c1 [LG2-89]
44.4

Please supply the value of reported EC50 for the item COc1ccc(Nc2nccn3c(-c4cccc(C(N)=O)c4)cnc23)cc1 [LG2-13]
99.7

Look up EC50 of CC(=O)c1cccc(-c2cnc3c(Nc4ccc(N5CCOCC5)cc4)nccn23)c1 [LG2-81] and report it.
43.9

Write down EC50 measured for item COc1cccc(-c2cnc3c(Nc4ccccc4)nccn23)c1 [LG2-85]
67.9

Please report the measured EC50 for CN(C)CCNC(=O)c1ccc(-c2cnc3c(Nc4ccc(Oc5ccccc5)cc4)nccn23)cc1 [LG2-11]
24.2

Read off the recorded EC50 for COc1cc(Nc2nccn3c(-c4cccc(C(C)=O)c4)cnc23)cc(OC)c1OC [LG2-75]
26.8

====

# System: HIF-1
# test.description: HIF-1 GFP/DsRFP expression (G/R) in C6#4 cells stimulated by CoCl2
# Format: cell-based
# measurement.conditions: read-out: G/R (EC-50) 1 ex
measured.parameter: EC50 (µM)
Please give a number only; it is taken to be in µM.

Provide one value: measured EC50 of CN(C)CCNC(=O)c1ccc(-c2cnc3c(Nc4ccc(Oc5ccccc5)cc4)nccn23)cc1
10.9

Specify EC50 for c1ccc2c(-c3cnc4c(Nc5ccc6[nH]ccc6c5)nccn34)cccc2c1 and stop.
13.7

Given COc1cc(-c2cnc3c(Nc4ccccc4)nccn23)ccc1O , respond with its EC50.
13.5

Answer with the recorded EC50 for the compound listed here: COc1cc(Nc2nccn3c(-c4cccc(C(C)=O)c4)cnc23)cc(OC)c1OC
4.37

Item COc1cccc(-c2cnc3c(Nc4ccccc4)nccn23)c1 : provide EC50
23.9

Output measured EC50 for this item: c1ccc(Oc2ccc(Nc3nccn4c(-c5ccc6[nH]ccc6c5)cnc34)cc2)cc1
14.2

Note EC50 for the compound shown: CC(=O)c1cccc(-c2cnc3c(Nc4ccc(N5CCOCC5)cc4)nccn23)c1
8.66
